TEST_CONDITIONS: 25 °C
OUTCOME_MEASURE: solubility (mM)

Example entries and their recorded answers appear below.
COMPOUND | solubility / mM
COC(=O)c1ccc(C(=O)OC)cc1 | 0.0978
Cc1cc(O)ccc1Cl | 26.9

P = CC(O)CNCC(C)O (centres undefined)
Q = CCCOC(=O)c1ccccc1
Select the item with the higher value of solubility from the options P and Q listed. # respond with the chosen item's label P

====

TEST_CONDITIONS: 25 °C
OUTCOME_MEASURE: solubility (µM)

Example entries and their recorded answers appear below.
SMILES_ENTRY | solubility [µM]
CCCCCCl | 1850
CCNc1ccccc1 | 19900
Brc1cccc(Br)c1Br | 9.12
CCCCC(=O)OC | 43600
Brc1ccc2ccccc2c1 | 39.8

1 = CCCNCCC
2 = CCCCCCCl
3 = CCC(C)(C)Cl
# desc sort on solubility across 3 molecules Enter labels, ranked according to the request. 1, 3, 2
